MEASUREMENT_TYPE: melting point

Guide cases for melting point, answers given:
COC(=O)[C@H](Cc1ccc(O)cc1)Nc1ccccc1C(=O)c1ccccc1 ... 185 to 186 °C
O=C(O)C1CCc2c(c3cc(OCc4ccccc4)ccc3n2C(=O)c2ccccc2)C1 (stereo not given) ... 193 to 194 °C
CCCC(=O)C(=O)[C@H](CC1CCCCC1)NC(=O)[C@H](Cc1cn(S(=O)(=O)c2ccc(C)cc2)cn1)NC(=O)OC(C)(OC)OC ... 60 to 67 °C
CC(C)(C)OC(=O)NC(=Cc1ncoc1C(C)(C)C)C(=O)OC(C)(C)C ... 170 to 172 °C
CCOCn1c(C(F)(F)F)nc2cc(Cl)c(Cl)cc21 ... 89 to 92 °C
CC(Cc1cc([N+](=O)[O-])cc2ccoc12)NC(=O)OC(C)(C)C (stereo not given) ... 131 to 132 °C
Cc1nc2c([N+](=O)[O-])cc(Br)cc2n1C ... 193 to 195 °C
N#CCc1c[nH]c2ccc(OCc3ccccc3)c(Cl)c12 ... 130 to 132 °C

Exercise: For the compound OCc1cn(Cc2ccc(OCc3ccccc3)cc2)nc1OCc1ccc(OCc2ccccc2)cc1 , what melting point is on record?
Solution: 128 to 129 °C

Exercise: Report melting point for Nc1nc(NCCSSCCNc2n[nH]c(N)n2)n[nH]1 please.
Solution: 231 to 233 °C
